Assay: log P(HCOOH) (HPLC/MS)
Assay type: physicochemical
Details: HPLC on reversed phase columns, EEC directive 79/831 Annex V.A8; pH 2.7, 0.1% formic acid in water / acetonitrile gradient; read-out: log p
PROPERTY NAME: chromatographic logP

>>> observed_measurement("C#CCCCC(=O)Nc1cccc(CON=C(c2ccccc2)n2nnnc2C)n1")
3.04
>>> observed_measurement("Cn1nnnc1/C(=N\\OCc1cccc(NC(=O)OCCCCCl)n1)c1ccccc1")
3.67

----------
Experiment: log P(HCOOH) (HPLC/MS)
Format: physicochemical
Conditions: HPLC on reversed phase columns, EEC directive 79/831 Annex V.A8; pH 2.7, 0.1% formic acid in water / acetonitrile gradient
PROPERTY NAME: log p

>>> observed_measurement("Cc1nnnn1C(=NOCc1cccc(NC(=O)C(F)(F)Sc2ccccc2)n1)c1ccccc1")
4.2
>>> observed_measurement("CC(=O)OCCCCOC(=O)Nc1nc(CON=C(c2cccc(F)c2)c2nnnn2C)cs1")
3.15
>>> observed_measurement("Cn1nnnc1C(=NOCc1cccc(NC(=O)CCOc2ccccc2)n1)c1cccc(F)c1")
3.64
>>> observed_measurement("COCCOCCOCC(=O)Nc1nc(CON=C(c2cccc(F)c2)c2nnnn2C)cs1")
2.66
>>> observed_measurement("Cn1nnnc1C(=NOCc1csc(NC(=O)OCC(Cl)(Cl)Cl)n1)c1ccccc1")
3.7
>>> observed_measurement("COC(=O)CCCCC(=O)Nc1cccc(CON=C(c2ccccc2)n2nnnc2C)n1")
2.86
>>> observed_measurement("C=C(C)OC(=O)Nc1cccc(CON=C(c2ccccc2)n2nnnc2C)n1")
3.21
>>> observed_measurement("CC1CCC(C(C)C)C(OCC(=O)Nc2nc(CON=C(c3cccc(F)c3)c3nnnn3C)cs2)C1 (stereo not shown)")
5.47
>>> observed_measurement("C#CCCOC(=O)Nc1cccc(CON=C(c2ccccc2)n2nnnc2C)n1")
3.15
>>> observed_measurement("C#CCCCC(=O)Nc1cccc(CON=C(c2cccc(F)c2)n2nnnc2C)n1")
3.15
>>> observed_measurement("Cc1nnnn1C(=NOCc1csc(NC(=O)C2CCOCC2)n1)c1ccccc1 (mixture of isomers)")
2.49
>>> observed_measurement("Cc1nnnn1C(=NOCc1cccc(NC(=O)C(F)(F)C(F)(F)C(F)(F)C(F)(F)C(F)(F)C(F)(F)C(F)(F)F)n1)c1ccccc1")
5.93
>>> observed_measurement("Cc1nnnn1C(=NOCc1cccc(NC(=O)CC2CCCCC2)n1)c1cccc(F)c1")
4.23
>>> observed_measurement("Cn1nnnc1C(=NOCc1cccc(NC(=O)CCCc2ccsc2)n1)c1ccccc1")
3.7
>>> observed_measurement("C=CCOC(=O)Nc1cccc(CON=C(c2ccccc2)c2nnnn2C)n1")
3.21
>>> observed_measurement("Cc1nnnn1C(=NOCc1csc(NC(=O)COC2CC(C)CCC2C(C)C)n1)c1ccccc1 (mixture of isomers)")
5.48

FYI, the data here is from patent US8614217B2.
